Target: D(2) dopamine receptor (Homo sapiens)
Experiment: HTS Assay for Allosteric Antagonists of the Human D2 Dopamine Receptor: Primary Screen for Antagonists
Conditions: HEK293 TREx D2 cells, calcium flux, dopamine EC80; at 10 µM
About 6,900 (2%) of roughly 340,000 compounds were called active. Cut-off read from the data, not from the text of the source: active = inhibition above about 30%; inactive = below that, where a call was filed. For the sample, actives were picked, then their nearest neighbours and some compounds at random.
Classes used: yes (active), no (inactive)

>>> print(df.to_string())
                                    compound                           assay_target  class_label
 0  OC(COc1ccc(Br)cc1)CN1CCCC1 (stereo not drawn)  D(2) dopamine receptor (Homo sapiens)           no
 1                   O=C(O)COc1nsnc1N1CCOCC1  D(2) dopamine receptor (Homo sapiens)           no
 2  COc1ccc(CNC(=O)CN2C(=O)NC3(CCCc4sccc43)C2=O)cc1 (stereo not drawn)  D(2) dopamine receptor (Homo sapiens)           no
 3  Cc1ccc(N2C(=O)C3C4C=CC(CC4)C3C2=O)cc1Br (stereo not drawn)  D(2) dopamine receptor (Homo sapiens)          yes
 4  O=C(c1ccccc1)c1ccc(OCC(O)CN2CCCC2)cc1 (stereo not drawn)  D(2) dopamine receptor (Homo sapiens)          yes
 5               c1ccc(COc2nsnc2N2CCOCC2)cc1  D(2) dopamine receptor (Homo sapiens)           no
 6  CC(=O)Nc1ccc(S(=O)(=O)N(CCc2ccccc2)CC(=O)N/N=C/c2ccc(C(=O)O)cc2)cc1  D(2) dopamine receptor (Homo sapiens)           no
 7    O=C(COC(=O)c1ccc2ncsc2c1)Nc1ccc(Cl)cc1  D(2) dopamine receptor (Homo sapiens)           no
 8   CCOc1ccccc1/C=c1\sc2nc(-c3ccco3)nn2c1=O  D(2) dopamine receptor (Homo sapiens)          yes
 9  CC(C)c1ccc(OCC(O)CN2CCN(c3ccccn3)CC2)cc1 (stereo not drawn)  D(2) dopamine receptor (Homo sapiens)          yes
10  CCc1ccccc1OCC(=O)Nc1ccc(C)c(S(=O)(=O)N2CCCCCC2)c1  D(2) dopamine receptor (Homo sapiens)           no
11  COc1ccc(CC(=O)Nc2c3c(nn2-c2cccc(Cl)c2)CS(=O)C3)cc1 (stereo not drawn)  D(2) dopamine receptor (Homo sapiens)           no
12  CC(C)OP(=O)(OC(C)C)C(Nc1ccccc1)c1cccc([N+](=O)[O-])c1 (stereo not drawn)  D(2) dopamine receptor (Homo sapiens)           no
13  Cc1cccc(OCC(O)CN2CCN(CCN3C(=O)c4cccc5cccc(c45)C3=O)CC2)c1C (stereo not drawn)  D(2) dopamine receptor (Homo sapiens)           no
14  COc1ccc(S(=O)(=O)N(CC(=O)N/N=C/c2ccccc2C(=O)O)c2ccccc2OC)cc1  D(2) dopamine receptor (Homo sapiens)           no
15                c1nc(COc2nsnc2N2CCOCC2)cs1  D(2) dopamine receptor (Homo sapiens)          yes
16  O=c1nc2s/c(=C\c3ccco3)c(=O)n2nc1Cc1ccccc1  D(2) dopamine receptor (Homo sapiens)           no
17  CC(=O)Nc1ccc(OCC(O)CN2CCN(c3ccccc3Cl)CC2)cc1 (stereo not drawn)  D(2) dopamine receptor (Homo sapiens)          yes
18  COc1ccc(N(CC(=O)N/N=C/c2cccc3c2OCCO3)S(=O)(=O)c2ccc(NC(C)=O)cc2)cc1  D(2) dopamine receptor (Homo sapiens)          yes
19  O=C(C(c1ccccc1)c1ccccc1)N1CCN(CC(O)COc2ccccc2)CC1 (stereo not drawn)  D(2) dopamine receptor (Homo sapiens)           no
20  CN(C)CCN(C(=O)CN1C(=O)c2ccccc2C1=O)c1nc2cc3c(cc2s1)OCCO3  D(2) dopamine receptor (Homo sapiens)           no
21        CSc1nc(-c2ccco2)nn1C(=O)CCc1ccccc1  D(2) dopamine receptor (Homo sapiens)           no
22  Cc1ccc2nc(SCC(=O)N3CC(C)OC(C)C3)nc(=O)n2c1 (stereo not drawn)  D(2) dopamine receptor (Homo sapiens)           no
